target-entity: integrins on WM-115 cells (mainly integrin α5β1, αVβ3, and αVβ5)
assay-method-text: competitive cell adhesion assay
test-readout: IC50

Example entries and their recorded answers appear below.
{"binder": "FEANE (HELM PEPTIDE1{F.E.[dA].N.E}$PEPTIDE1,PEPTIDE1,1:R1-5:R2$$$V2.0; SMILES C[C@H]1NC(=O)[C@H](CCC(=O)O)NC(=O)[C@H](Cc2ccccc2)NC(=O)[C@H](CCC(=O)O)NC(=O)[C@H](CC(N)=O)NC1=O) [cyclopeptide-3 c-(-FEaNE-)]", "IC50": "> 1000 µM"}
{"binder": "FEANE (HELM PEPTIDE1{F.E.A.N.[dE]}$PEPTIDE1,PEPTIDE1,1:R1-5:R2$$$V2.0; SMILES C[C@@H]1NC(=O)[C@H](CCC(=O)O)NC(=O)[C@H](Cc2ccccc2)NC(=O)[C@@H](CCC(=O)O)NC(=O)[C@H](CC(N)=O)NC1=O) [cyclopeptide-5 c-(-FEANe-)]", "IC50": "> 1000 µM"}
{"binder": "ANFEANELFFISEDV [linear peptide 6 (…)]", "IC50": "239 µM"}
{"binder": "FEANE (HELM PEPTIDE1{F.[dE].A.N.E}$PEPTIDE1,PEPTIDE1,1:R1-5:R2$$$V2.0; SMILES C[C@@H]1NC(=O)[C@@H](CCC(=O)O)NC(=O)[C@H](Cc2ccccc2)NC(=O)[C@H](CCC(=O)O)NC(=O)[C@H](CC(N)=O)NC1=O) [cyclopeptide-2 c-(-FeANE-)]", "IC50": "54 to 430 µM"}

# evaluate next
# IC50 of FEANE (HELM PEPTIDE1{[dF].E.A.N.E}$PEPTIDE1,PEPTIDE1,1:R1-5:R2$$$V2.0; SMILES C[C@@H]1NC(=O)[C@H](CCC(=O)O)NC(=O)[C@@H](Cc2ccccc2)NC(=O)[C@H](CCC(=O)O)NC(=O)[C@H](CC(N)=O)NC1=O) [cyclopeptide-1 c-(-fEANE-)] = > 1000 µM
